Listed here: items and their measured pKi.
target: Beta-glucuronidase (Bos taurus, UniProt A3KMY8); assay: Inhibition of bovine GUS pre-incubated for 5 to 30 mins before 4-methylumbelliferone beta-D-glucuronide substrate addition at pH 4.5
Sequence (A3KMY8 whole entry): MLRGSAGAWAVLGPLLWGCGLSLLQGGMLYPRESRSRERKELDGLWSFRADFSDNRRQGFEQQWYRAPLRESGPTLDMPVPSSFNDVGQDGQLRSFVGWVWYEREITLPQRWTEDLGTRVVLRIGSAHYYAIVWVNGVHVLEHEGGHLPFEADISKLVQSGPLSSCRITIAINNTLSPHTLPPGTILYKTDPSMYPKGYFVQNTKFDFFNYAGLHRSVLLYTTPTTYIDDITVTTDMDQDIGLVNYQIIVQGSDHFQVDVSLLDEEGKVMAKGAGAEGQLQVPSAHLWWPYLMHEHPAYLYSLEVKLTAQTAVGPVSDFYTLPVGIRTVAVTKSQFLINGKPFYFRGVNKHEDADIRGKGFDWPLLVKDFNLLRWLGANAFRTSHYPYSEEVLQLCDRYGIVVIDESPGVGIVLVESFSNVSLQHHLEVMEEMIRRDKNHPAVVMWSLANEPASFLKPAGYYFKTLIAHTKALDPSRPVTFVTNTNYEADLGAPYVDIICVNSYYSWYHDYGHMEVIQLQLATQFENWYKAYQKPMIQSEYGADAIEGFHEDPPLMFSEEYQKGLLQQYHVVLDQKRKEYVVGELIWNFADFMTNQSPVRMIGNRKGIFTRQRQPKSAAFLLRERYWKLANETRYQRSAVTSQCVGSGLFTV
pKi: −log10 of the molar value.
property: pKi

[[record]]
line_notation = "O=C(O)[C@H]1NC[C@H](O)[C@@H](O)[C@@H]1O"
reported_result = 4.67

[[record]]
line_notation = "CCCN1C[C@@H](O)[C@H](O)[C@@H](C(=O)O)C1"
reported_result = 3.73

[[record]]
line_notation = "CCC[C@@H]1NC[C@@H](O)[C@H](O)[C@H]1C(=O)O"
reported_result = 4.49

[[record]]
line_notation = "O=C(O)[C@H]1OC(=O)[C@H](O)[C@@H](O)[C@@H]1O"
reported_result = 5.31

[[record]]
line_notation = "O=C(O)[C@H]1CNC[C@@H](O)[C@@H]1O"
reported_result = 7.32

[[record]]
line_notation = "O=C(O)[C@H]1NC(=O)[C@H](O)[C@@H](O)[C@@H]1O"
reported_result = 6.88

